Target: T1, His-tagged P3028 (human, also: His-tag, terminus and sequence not given here)
T1 construct: in solution at 0.5 ug/mL over the peptide cards; found with anti-His-tag antibody and rabbit anti-mouse peroxidase (rampo); also called PGE73; not shown: His-tag
T1 peptide: VFDEFKPLVEEPQNLIK
Experiment: PEPSCAN chip ELISA, His-P3028 in solution;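 note: score is the raw OD at 405 nm from peroxidase colour with ABTS, imaged by CCD camera before and after staining, with wells showing air bubbles set to zero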
No end group written: not given here.
observable: RAMPO Score

Example cases with answers are listed next.
INSERT INTO results (binder, obs_value) VALUES
  ('KKLDTQFVKLSLFTER [SEQ ID NO 410]', '410 rampo score'),
  ('KKLDTFFVKLSLCTER [SEQ ID NO 362]', '400 rampo score');

We now examine a further binder.
Name the recorded RAMPO Score for KKLDTFCVKLSLFTER [SEQ ID NO 409] . 411 rampo score
